Field: melting point. Provide a value for each of the molecules that follow.

Input: Answer with the recorded melting point of Cc1ccoc1C(=O)Nc1nc(-c2ccco2)c(C(=O)c2ccccn2)s1 only.
Output: 174 to 176 °C

Input: Answer with the recorded melting point of CN(C)c1cccc(C(=O)Nc2nc(-c3ccco3)c(C(=O)C3CCOCC3)s2)c1 only.
Output: 239 to 243 °C

Input: Answer with the recorded melting point of O=C(Nc1nc(-c2ccco2)c(C(=O)c2ccoc2)s1)c1ccncc1 only.
Output: 217 to 231 °C

Input: Answer with the recorded melting point of CC(C)(O)c1cc2cc(C(=O)Nc3nc(-c4ccco4)c(C(=O)c4ccccn4)s3)ccc2o1 only.
Output: 230 to 231 °C

Input: Answer with the recorded melting point of CC(=O)N1CCN(CC(=O)Nc2nc(-c3ccco3)c(C(=O)c3ccccn3)s2)CC1 only.
Output: 170 to 171 °C

Input: Answer with the recorded melting point of O=C(CN1CCN(c2ncccn2)CC1)Nc1nc(-c2ccco2)c(C(=O)c2ccccn2)s1 only.
Output: 199 to 200 °C

Input: Answer with the recorded melting point of Cc1ncc(C(=O)Nc2nc(-c3ccco3)c(C(=O)c3ccccn3)s2)cn1 only.
Output: 255 to 265 °C (dec.)

Input: Answer with the recorded melting point of CC(C)C(=O)c1sc(NC(=O)c2ccncc2)nc1-c1ccco1 only.
Output: 179 to 182 °C

Input: Answer with the recorded melting point of O=C(Nc1nc(-c2ccco2)c(C(=O)c2ccccn2)s1)c1ccccc1 only.
Output: 165 to 171 °C

Input: Answer with the recorded melting point of CC(=O)Nc1nc(-c2ccco2)c(C(=O)c2ccccn2)s1 only.
Output: 216 to 217 °C

Input: Answer with the recorded melting point of O=C(Nc1nc(-c2ccco2)c(C(=O)c2ccco2)s1)c1ccncc1 only.
Output: 245 to 248 °C

Input: Answer with the recorded melting point of CCN(CC)C(=O)C1CCCN(CC(=O)Nc2nc(-c3ccco3)c(C(=O)c3ccccn3)s2)C1.Cl (stereo not shown) only.
Output: 180 to 185 °C

Input: Answer with the recorded melting point of COCCN(C)CC(=O)Nc1nc(-c2ccco2)c(C(=O)C2CCOCC2)s1 only.
Output: 103 to 105 °C

Input: Answer with the recorded melting point of O=C(CN1CCC(N2CCCCC2)CC1)Nc1nc(-c2ccco2)c(C(=O)c2ccccn2)s1 only.
Output: 214 to 220 °C (dec.)

Input: Answer with the recorded melting point of O=C(Nc1nc(-c2ccco2)c(C(=O)c2nccs2)s1)c1ccncc1 only.
Output: 228 to 240 °C

Input: Answer with the recorded melting point of O=C(Nc1nc(-c2ccco2)c(C(=O)c2ccccn2)s1)c1ccno1 only.
Output: 223 to 230 °C
